Test: Reduction in m6A/A ratio in poly-adenylated RNA fraction of human MOLM-13 cells measured after 16 hrs by UPLC-MS/MS analysis
Type: functional, cell-based
Measurement label: pEC50
API: returns pEC50 as number; meaning -log10 of concentration in mol/L.

Query: Record request: pEC50 value, item "CNc1cc(N2CCC3(CC2)CN(c2cc(F)c(CN4CCC(C)(C)CC4)cc2F)CC(=O)N3)ncn1"
Reply: 6.15

---

Target: N6-adenosine-methyltransferase catalytic subunit (Homo sapiens, UniProt Q86U44)
Sequence (Q86U44 whole entry): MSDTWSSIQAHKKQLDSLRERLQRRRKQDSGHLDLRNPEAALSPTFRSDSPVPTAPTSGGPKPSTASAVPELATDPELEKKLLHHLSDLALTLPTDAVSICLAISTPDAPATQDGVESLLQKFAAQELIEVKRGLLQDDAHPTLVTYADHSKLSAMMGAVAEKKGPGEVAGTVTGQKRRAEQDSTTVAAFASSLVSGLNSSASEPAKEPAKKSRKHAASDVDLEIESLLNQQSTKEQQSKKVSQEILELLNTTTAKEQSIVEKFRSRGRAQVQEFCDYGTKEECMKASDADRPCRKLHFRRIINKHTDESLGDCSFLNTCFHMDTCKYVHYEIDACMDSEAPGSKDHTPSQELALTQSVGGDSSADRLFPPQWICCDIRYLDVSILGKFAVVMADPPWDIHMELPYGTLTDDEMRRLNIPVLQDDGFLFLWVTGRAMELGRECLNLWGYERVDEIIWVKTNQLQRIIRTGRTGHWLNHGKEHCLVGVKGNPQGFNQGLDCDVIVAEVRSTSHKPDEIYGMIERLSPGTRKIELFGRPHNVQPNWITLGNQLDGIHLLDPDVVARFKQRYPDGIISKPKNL
Experiment: Inhibition of recombinant […] (unknown origin) expressed in baculovirus infected Sf9 cells assessed as decrease in N6-methyladenosine level in oligonucleotide substrate by TR-FRET assay
Would you mind telling me the reported IC50 of each entry?
Reply with a number, then the unit it belongs to.

Query: Record request: IC50 value, item CNc1cc(N2CCCC(O)(CNC(=O)c3ccc(CN4CCC(C)(C)CC4)cc3)C2)ncn1 (configuration not stated)
Reply: 7 µM

Query: Record request: IC50 value, item "Nc1ncnc2c1ncn2[C@@H]1O[C@H](CSCC[C@H](N)C(=O)O)[C@@H](O)[C@H]1O"
Reply: 0.59 µM

Data origin, for the record: ChEMBL document CHEMBL5053501
